meta.source: patent US20240254119A1

Test system: CSF-1R (Homo sapiens, UniProt P07333)
Construct: purchased Invitrogen PV3249 (lot 662393N)
Sequence (P07333 20-972): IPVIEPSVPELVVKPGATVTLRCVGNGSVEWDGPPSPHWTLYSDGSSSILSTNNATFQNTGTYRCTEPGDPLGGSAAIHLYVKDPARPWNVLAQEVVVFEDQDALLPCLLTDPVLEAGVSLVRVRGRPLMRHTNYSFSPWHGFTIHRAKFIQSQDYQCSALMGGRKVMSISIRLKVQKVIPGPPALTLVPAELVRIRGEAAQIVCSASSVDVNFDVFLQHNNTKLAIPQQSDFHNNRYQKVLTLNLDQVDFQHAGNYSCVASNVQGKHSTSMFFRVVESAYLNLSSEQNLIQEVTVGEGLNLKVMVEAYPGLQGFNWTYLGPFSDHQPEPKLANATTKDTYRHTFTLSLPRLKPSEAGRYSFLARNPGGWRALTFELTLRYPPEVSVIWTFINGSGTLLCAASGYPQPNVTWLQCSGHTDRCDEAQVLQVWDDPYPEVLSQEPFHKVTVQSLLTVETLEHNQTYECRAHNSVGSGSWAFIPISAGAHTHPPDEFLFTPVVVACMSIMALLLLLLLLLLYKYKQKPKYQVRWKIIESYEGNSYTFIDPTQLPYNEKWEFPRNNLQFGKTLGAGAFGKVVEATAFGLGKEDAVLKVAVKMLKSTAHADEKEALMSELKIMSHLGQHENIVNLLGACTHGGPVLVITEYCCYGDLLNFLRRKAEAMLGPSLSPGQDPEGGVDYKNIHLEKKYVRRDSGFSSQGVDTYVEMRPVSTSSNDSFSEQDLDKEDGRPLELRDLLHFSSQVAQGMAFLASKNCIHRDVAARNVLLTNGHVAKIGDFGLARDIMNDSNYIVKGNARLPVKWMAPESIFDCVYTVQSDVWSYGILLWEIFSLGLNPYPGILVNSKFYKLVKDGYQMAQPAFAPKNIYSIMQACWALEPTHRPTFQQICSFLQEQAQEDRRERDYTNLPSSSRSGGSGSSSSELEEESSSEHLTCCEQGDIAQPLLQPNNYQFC
Protocol details: HTRF biochemical assay, CSF-1R
Condition notes: Table 4
Hi there, I'd appreciate the recorded IC50 for every entry that follows.

Quick check: IC50 of "COCCS(=O)(=O)N1CC[C@H]1c1nc(-c2ccc(C)c(NC(=O)c3cnc4ccccn34)c2)no1" ? 500 to 5000 nM

IC50 lookup needed for Cc1ccc(-c2noc(C(O)C3CC3)n2)cc1NC(=O)c1cnc2ccccn12 (racemic) , thanks. 50 to 500 nM

Recorded IC50 of "Cc1ccc(-c2noc([C@H]3C[C@@H]3F)n2)cc1NC(=O)c1cnc2cc(F)ccn12" , please. ≤ 50 nM

# get_value(readout='IC50', item= Cc1ccc(-c2noc(C(O)C3CCC3)n2)cc1NC(=O)c1cnc2ccccn12 (racemic) ) 50 to 500 nM

Which IC50 is reported for this compound? Cc1ccc(-c2noc(C3CC3F)n2)cc1NC(=O)c1cnc2cc(COC3CC(O)C3)ccn12 (mixture of isomers) [Compound I-72] ≤ 50 nM

What value of IC50 has been reported for the following compound? Cc1ccc(-c2noc(C(F)C3CC3)n2)cc1NC(=O)c1cnc2ccccn12 (racemic) 50 to 500 nM

IC50 for "COCc1ccn2c(C(=O)Nc3cc(-c4noc(C(F)(F)F)n4)ccc3C)cnc2c1" ? 50 to 500 nM

###

Test system: MDR1 (MDR1-MDCKII cells) (Homo sapiens)
Construct: host or cells: MDCKII (canine kidney) cells
Sequence (P08183 whole entry): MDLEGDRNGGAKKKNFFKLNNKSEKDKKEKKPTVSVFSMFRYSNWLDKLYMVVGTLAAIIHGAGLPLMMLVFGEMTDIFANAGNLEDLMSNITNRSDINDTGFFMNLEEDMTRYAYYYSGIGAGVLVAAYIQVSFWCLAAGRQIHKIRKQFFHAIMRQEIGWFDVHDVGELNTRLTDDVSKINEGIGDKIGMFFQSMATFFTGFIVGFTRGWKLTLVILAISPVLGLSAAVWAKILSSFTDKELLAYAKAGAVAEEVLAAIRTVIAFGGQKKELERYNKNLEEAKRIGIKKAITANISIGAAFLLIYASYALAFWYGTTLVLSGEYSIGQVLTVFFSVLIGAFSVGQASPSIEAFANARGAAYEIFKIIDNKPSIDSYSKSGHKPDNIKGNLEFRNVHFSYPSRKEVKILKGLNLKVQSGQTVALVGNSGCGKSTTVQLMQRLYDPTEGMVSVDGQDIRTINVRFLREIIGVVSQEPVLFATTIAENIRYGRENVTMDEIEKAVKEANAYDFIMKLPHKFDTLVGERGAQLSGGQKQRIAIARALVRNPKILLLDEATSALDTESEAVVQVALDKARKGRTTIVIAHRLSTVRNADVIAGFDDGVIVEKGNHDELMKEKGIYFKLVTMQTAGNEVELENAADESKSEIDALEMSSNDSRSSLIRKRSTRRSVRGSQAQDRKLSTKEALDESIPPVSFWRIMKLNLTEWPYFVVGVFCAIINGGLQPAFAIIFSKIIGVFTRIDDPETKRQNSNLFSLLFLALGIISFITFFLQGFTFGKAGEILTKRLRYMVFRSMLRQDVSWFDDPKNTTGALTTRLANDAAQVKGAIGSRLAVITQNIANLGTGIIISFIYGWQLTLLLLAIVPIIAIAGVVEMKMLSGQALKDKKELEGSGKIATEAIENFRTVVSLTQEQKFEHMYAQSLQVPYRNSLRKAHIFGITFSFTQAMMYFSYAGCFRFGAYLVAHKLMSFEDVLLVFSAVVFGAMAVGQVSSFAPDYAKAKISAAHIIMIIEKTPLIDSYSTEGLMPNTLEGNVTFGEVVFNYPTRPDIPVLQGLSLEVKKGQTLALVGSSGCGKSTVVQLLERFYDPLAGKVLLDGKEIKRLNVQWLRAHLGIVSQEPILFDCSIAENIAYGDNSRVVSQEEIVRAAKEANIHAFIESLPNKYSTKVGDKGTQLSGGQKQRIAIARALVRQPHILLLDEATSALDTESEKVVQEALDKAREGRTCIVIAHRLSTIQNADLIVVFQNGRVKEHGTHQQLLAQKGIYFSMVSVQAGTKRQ
Protocol details: Permeability in MDR1-MDCKII cells
Type: in vitro ADME
Condition notes: MDCKII-MDR1
Result type: MDCKII-MDR1: Efflux Ratio
// no unit string in output, number only

Give the measured MDCKII-MDR1: Efflux Ratio of "Cc1nc(-c2ccc(Cl)c(NC(=O)c3cnc4ccccn34)c2)no1" . 0.46

Fill in: MDCKII-MDR1: Efflux Ratio of "Cc1ccc(-c2noc([C@H](C)O)n2)cc1NC(=O)c1cnc2ccccn12" is ___ 1.36

Which measured MDCKII-MDR1: Efflux Ratio value corresponds to Cc1ccc(-c2noc(C3CCN3)n2)cc1NC(=O)c1cnc2ccccn12 (racemic) ? 3.08

Could you share which MDCKII-MDR1: Efflux Ratio value was measured for Cc1ccc(-c2noc(C(C)O)n2)cc1NC(=O)c1cnc2ccccn12 (racemic) ? 2.02

Please look up its MDCKII-MDR1: Efflux Ratio: "Cc1ccc(-c2noc([C@H]3C[C@@H]3F)n2)cc1NC(=O)c1cnc2cc(OC(F)(F)F)ccn12" 0.74

Suppose we examine the compound "CCCS(=O)(=O)N1CC(c2nc(-c3ccc(Cl)c(NC(=O)c4cnc5ccccn45)c3)no2)C1" ; what MDCKII-MDR1: Efflux Ratio value has been reported? 0.71

Given "COC(=O)N1CC(c2nc(-c3ccc(C(F)F)c(NC(=O)c4cnc5ccccn45)c3)no2)C1" , state its recorded MDCKII-MDR1: Efflux Ratio. 1.1

Report MDCKII-MDR1: Efflux Ratio for "Cc1ccc(-c2noc(CCO)n2)cc1NC(=O)c1cnc2ccccn12" please. 2.88

Reported MDCKII-MDR1: Efflux Ratio for Cc1ccc(-c2noc(C3CCS(=O)(=O)C3)n2)cc1NC(=O)c1cnc2ccccn12 (racemic) : what is it? 10.9

Please give the measured MDCKII-MDR1: Efflux Ratio for this compound: "COCCOCc1ccn2c(C(=O)Nc3cc(-c4noc([C@H]5C[C@@H]5F)n4)ccc3C)cnc2c1" 1.78

What value of measured MDCKII-MDR1: Efflux Ratio is listed for "Cc1ccc(-c2noc(C3(O)CC(F)(F)C3)n2)cc1NC(=O)c1cnc2ccccn12" ? 2.34

Can you look up the measured MDCKII-MDR1: Efflux Ratio of Cc1ccc(-c2noc(CC(O)C(F)F)n2)cc1NC(=O)c1cnc2ccccn12 (stereo not shown) for me? 3.67

Look up MDCKII-MDR1: Efflux Ratio: Cc1ccc(-c2noc(C3CCC(F)C3)n2)cc1NC(=O)c1cnc2ccccn12 (racemic) 0.76

If you can, please state the reported MDCKII-MDR1: Efflux Ratio value of Cc1ccc(-c2noc(C3CC(F)C3)n2)cc1NC(=O)c1cnc2ccccn12 (stereo not shown) . 0.55

Value lookup for MDCKII-MDR1: Efflux Ratio; key = "COC(=O)N1CC(c2nc(-c3ccc(C)c(NC(=O)c4cnn5ccc(Br)cc45)c3)no2)C1" 1.19

Could you share which MDCKII-MDR1: Efflux Ratio value was measured for Cc1ccc(-c2noc([C@H]3CCC(=O)N3)n2)cc1NC(=O)c1cnc2ccccn12 (racemic) ? 38.7

Using the record for "Cc1ccc(-c2noc([C@H]3CC(F)(F)CN3)n2)cc1NC(=O)c1cnc2ccccn12" , report its MDCKII-MDR1: Efflux Ratio. 0.81

Which MDCKII-MDR1: Efflux Ratio value is on record for Cc1ccc(-c2noc(C3CC(C)(F)C3)n2)cc1NC(=O)c1cnc2ccccn12 (stereo not shown) ? 0.48

Endpoint output: MDCKII-MDR1: Efflux Ratio of "COC(=O)N1CC(c2nc(-c3ccc(Cl)c(NC(=O)c4cnc5ccccn45)c3)no2)C1" . Value? 0.84

What does the record list as MDCKII-MDR1: Efflux Ratio for "O=C(Nc1cc(-c2noc([C@H]3C[C@@H]3F)n2)ccc1Cl)c1cnc2ccccn12" ? 0.82

Which MDCKII-MDR1: Efflux Ratio is reported for this compound? "CCCNc1ccn2c(C(=O)Nc3cc(-c4noc([C@H]5C[C@@H]5F)n4)ccc3C)cnc2c1" 1.08

What value of MDCKII-MDR1: Efflux Ratio has been recorded for this entry: "Cc1ccc(-c2noc(C3COC3)n2)cc1NC(=O)c1cnc2ccccn12" 1.01

Which MDCKII-MDR1: Efflux Ratio is reported for this compound? "Cc1ccc(-c2noc([C@H]3C[C@@H]3F)n2)cc1NC(=O)c1cnc2ccc(F)cn12" 0.51

What value of MDCKII-MDR1: Efflux Ratio has been recorded for this entry: "Cc1ccc(-c2noc([C@H]3C[C@@H]3F)n2)cc1NC(=O)c1cnc2ccc(C#N)cn12" 0.88

Please look up its MDCKII-MDR1: Efflux Ratio: "Cc1ccc(-c2noc([C@H]3C[C@@H]3F)n2)cc1NC(=O)c1cnc2cc(OC(C)C)ccn12" 0.86

MDCKII-MDR1: Efflux Ratio lookup needed for "Cc1ccc(-c2noc(CC(C)(C)O)n2)cc1NC(=O)c1cnc2ccccn12" , thanks. 1.85

Looking for the measured MDCKII-MDR1: Efflux Ratio of "CNC(=O)N1CC(c2nc(-c3ccc(C)c(NC(=O)c4cnc5ccccn45)c3)no2)C1" , can you help? 70.3

Look up MDCKII-MDR1: Efflux Ratio: "Cc1ccc(-c2noc(C3CN(C(=O)CO)C3)n2)cc1NC(=O)c1cnc2ccccn12" 27.9

Request the reported MDCKII-MDR1: Efflux Ratio associated with Cc1ccc(-c2noc(CC(C)O)n2)cc1NC(=O)c1cnc2ccccn12 (racemic) 2.01

Can you share its MDCKII-MDR1: Efflux Ratio? I mean this compound: Cc1ccc(-c2noc(C3(C)CC(F)(F)CN3)n2)cc1NC(=O)c1cnc2ccccn12 (racemic) 0.93

Given the compound Cc1ccc(-c2noc(C(C)NS(C)(=O)=O)n2)cc1NC(=O)c1cnc2ccccn12 (single isomer, unassigned) , what is its reported MDCKII-MDR1: Efflux Ratio? 20.5
